- experimental_target: T1, human calcitonin (a) receptor (human, UniProt P30988 25-474)
- T1 sequence (looked up): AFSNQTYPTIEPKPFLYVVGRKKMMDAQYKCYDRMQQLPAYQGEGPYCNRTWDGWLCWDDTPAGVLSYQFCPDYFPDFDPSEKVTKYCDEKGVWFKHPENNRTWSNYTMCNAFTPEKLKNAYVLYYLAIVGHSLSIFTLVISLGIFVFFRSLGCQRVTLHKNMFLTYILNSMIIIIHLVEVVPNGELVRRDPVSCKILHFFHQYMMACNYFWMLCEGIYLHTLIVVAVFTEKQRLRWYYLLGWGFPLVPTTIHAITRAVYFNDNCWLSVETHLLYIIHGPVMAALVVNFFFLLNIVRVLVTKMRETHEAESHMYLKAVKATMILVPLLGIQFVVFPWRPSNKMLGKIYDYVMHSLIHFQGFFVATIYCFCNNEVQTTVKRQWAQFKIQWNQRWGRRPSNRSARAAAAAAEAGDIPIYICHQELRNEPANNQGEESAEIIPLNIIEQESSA
- test_method_notes: cell-based or functional assay
Starred links: 1 amine or outer side, 2 acyl side, 3 side chain; linkers in the order of their positions; H or OH if unused. Positions of bridges follow the written chain, without caps; N, C: chain ends. Non-standard residues stand in square brackets, D forms with d. Groups on a side chain read outwards from the residue. Primed or numbered codes have the meaning given here. No end group written: not given here. *: point of attachment. C18 diacid′ = 17-carboxyheptadecanoyl on γGlu amine: (S)-4-carboxy-4-(17-carboxyheptadecanoylamino)butyryl; C20 diacid = O=C(O)CCCCCCCCCCCCCCCCCCC(=O)*; 19‑carboxyheptadecanoyl = not defined here; γGlu = O=C(O)[C@H](CCC(=O)[*:2])N[*:1]; AEEA = NCCOCCOCC(=O)O
So basically, if CTa receptor human EC50 comes in under 0.3 nM it's satisfied, and if it's 0.3 nM or more it's not satisfied.

>>> cat("{C20 diacid-γGlu}-HCNTATCATQRLAEFLHHSSNNFGPILPPTNVGSNTP-NH2 (disulfide 2-7; not fully specified; printed as N-alpha-[(S)-4-Carboxy-4-(19-carboxynonadecanoylamino)butyryl]-[His1,Glu14,His17,Pro37]-pramlintide) [N-alpha-[(S)-4-Carboxy-4-(19-carboxynonadecanoylamino)butyryl]-[His1,Glu14,His17,Pro37]-pramlintide]")
"satisfied"
>>> cat("{19‑carboxyheptadecanoyl-γGlu-AEEA-AEEA}-HCNTATCATQRLAEFLHHSSSNFGPILPPTNVGSHTY-NH2 (disulfide 2-7; reading uncertain; also: printed as N-alpha-[2-(2-{2-[2-(2-{2-[(S)-4-Carboxy-4-(19-carboxyheptadecanoylamino)butyrylamino]ethoxy}ethoxy)acetylamino]ethoxy}ethoxy)acetyl]-[His1,Glu14,His17,Ser21,His35]-pramlintide)")
"not satisfied"
>>> cat("{C18 diacid′-γGlu}-EKCNTATCATQRLAEFLRHSSNNFGPILPPTNVGSHTY-NH2 (disulfide 3-8) [N-alpha-[(S)-4-Carboxy-4-(17-carboxyheptadecanoylamino)butyryl]-Glu-[Glu14,Arg17,His35]-pramlintide]")
"not satisfied"
>>> cat("KCNTATCATQRLANFLHHSSHNFGK([AEEA-AEEA-γGlu-19‑carboxyheptadecanoyl])ILSSTNVGSHTY-NH2 (disulfide 2-7)")
"satisfied"
>>> cat("KCNTATCATQRLAEFLVHSSK([AEEA-AEEA-γGlu-19‑carboxyheptadecanoyl])NFGPILSSTNVGSHTY-NH2 (disulfide 2-7)")
"not satisfied"
>>> cat("{C20 diacid-γGlu}-KCNTATCATQRLAEFLHHSSNNFGPILPPTNVGSNTP-NH2 (disulfide 2-7; not fully specified; printed as N-alpha-[(S)-4-Carboxy-4-(19-carboxynonadecanoylamino)butyryl]-[Glu14,His17,Pro37]-pramlintide) [N-alpha-[(S)-4-Carboxy-4-(19-carboxynonadecanoylamino)butyryl]-[Glu14,His17,Pro37]-pramlintide]")
"satisfied"
>>> cat("{C20 diacid-γGlu}-KCNTATCATQRLAEFLHHSSNNFGPILPPTNVGSKTY-NH2 (disulfide 2-7; not fully specified; printed as N-alpha-[(S)-4-Carboxy-4-(19-carboxynonadecanoylamino)butyryl]-[Glu14,His17,Lys35]-pramlintide) [N-alpha-[(S)-4-Carboxy-4-(19-carboxynonadecanoylamino)butyryl]-[Glu14,His17,Lys35]-pramlintide]")
"satisfied"
>>> cat("KCNTATCATQRLAEFLVHSSK([AEEA-AEEA-γGlu-19‑carboxyheptadecanoyl])NFGPILPPTNVGSHTY-NH2 (disulfide 2-7)")
"not satisfied"

Query: Please let me know if {C20 diacid-γGlu}-KCNTATCATQRLAEFLHHSSNNFGPILPPTNVGSNHY-NH2 (disulfide 2-7; not fully specified; printed as N-alpha-[(S)-4-Carboxy-4-(19-carboxynonadecanoylamino)butyryl]-[Glu14,His17,His36]-pramlintide) [N-alpha-[(S)-4-Carboxy-4-(19-carboxynonadecanoylamino)butyryl]-[Glu14,His17,His36]-pramlintide] shows CTa receptor human EC50 below 0.3 nM.
Reply: satisfied

Query: Please let me know if {19‑carboxyheptadecanoyl-γGlu-AEEA-AEEA}-KCNTATCATQRLAEFLHHSSSNFGPILPPTNVGSHTY-NH2 (disulfide 2-7; reading uncertain; also: printed as N-alpha-[2-(2-{2-[2-(2-{2-[(S)-4-Carboxy-4-(19-carboxyheptadecanoylamino)butyrylamino]ethoxy}ethoxy)acetylamino]ethoxy}ethoxy)acetyl]-[Glu14,His17,Ser21,His35]-pramlintide) shows CTa receptor human EC50 below 0.3 nM.
Reply: satisfied

Query: Please let me know if {C20 diacid-γGlu}-EKCNTATCATQRLAEFLHHSSQNFGPILPPTNVGSHTY-NH2 (disulfide 3-8; not fully specified; printed as N-alpha-[(S)-4-Carboxy-4-(19-carboxynonadecanoylamino)butyryl]-Glu-[Glu14,His17,Gln21,His35]-pramlintide) shows CTa receptor human EC50 below 0.3 nM.
Reply: satisfied

Query: Please let me know if {19‑carboxyheptadecanoyl-γGlu-AEEA-AEEA}-[dR][dR]KCNTATCATQRLAEFLHRSSANFGPILPPTNVGSSTY-NH2 (disulfide 4-9; reading uncertain; also: printed as N-alpha-[2-(2-{2-[2-(2-{2-[(S)-4-Carboxy-4-(19-carboxyheptadecanoylamino)butyrylamino]ethoxy}ethoxy)acetylamino]ethoxy}ethoxy)acetyl]-D-Arg-D-Arg-[Glu14,His17,Arg18,Ala21,Ser35]-pramlintide) shows CTa receptor human EC50 below 0.3 nM.
Reply: not satisfied
